Data provenance is paper PMC7728344.

# Protocol Description: clinical
# Assay type: in vivo, human
# Condition Context: oral; human plasma, 0−24 h, after MP (mango pulp 500 g) beverage, mean ± standard error, n = 13; read-out: Cmax
Readout: Cmax (nM)
Number only, in nM; omit the unit.

What does the data say about its Cmax? Entry: O=C(O)c1cc(O)c(O)c(O)c1 20.4

====

# Protocol Description: clinical
# Type: in vivo, human
# Condition Context: human plasma, 0−24 h, after MP (mango pulp 500 g) beverage, mean ± standard error, n = 13; read-out: Cmax
Readout: Cmax (µM)
The response must be a number in µM with no trailing unit.

Any idea what Cmax was measured for O=C(O)[C@H]1O[C@@H](Oc2ccccc2O)[C@H](O)[C@@H](O)[C@@H]1O [Compound C10, catechol glucuronide] ? 0.472

====

# Protocol Description: Concentration of (poly)phenolic metabolites in fasting urine at baseline, 24 h after single MP beverage and 15th day after 14-day MP intake (UHPLC-QQQ-MS)
# Condition Context: human, urine, oral, 500 g
Threshold check on concentration at 0 h: at or above 900 nM gives TRUE, strictly below gives FALSE.

Molecule | Assigned Category
Oc1ccccc1O | TRUE
COc1cc(C(=O)O)ccc1O | TRUE
O=C(O)C=Cc1ccc(O)cc1 | FALSE

Kindly determine if concentration at 0 h recorded for O=Cc1ccc(O)cc1 [Compound 4-Hydroxybenzaldehyde] is above or exactly 900 nM. FALSE

Please indicate if the recorded concentration at 0 h for O=C(O)/C=C/c1ccc(O)c(O)c1 meets or exceeds 900 nM. FALSE

====

# Protocol Description: clinical
# Format: in vivo, human
# Condition Context: human, plasma, oral, 500 g; after mango intake; read-out: time to reach maximum concentration/area in plasma
Readout: Tmax

Fill in: Tmax of O=c1c2cc(O)c(O)cc2oc2cc(O)c([C@@H]3O[C@H](CO)[C@@H](O)[C@H](O)[C@H]3O)c(O)c12 [Compound C11, mangiferin] is ___ 1 to 2 h

====

# Protocol Description: clinical
# Format: in vivo, human
# Condition Context: human, in vivo, 100 mg
Readout: Cmax

Could you share which Cmax value was measured for O=C(O[C@@H]1O[C@H](CO)[C@@H](O)[C@H](O)[C@H]1O)c1cc(O)c(O)c(O)c1 ? 2.1 nM

====

# Protocol Description: Concentration of (poly)phenolic metabolites in fasting urine at baseline, 24 h after single MP beverage and 15th day after 14-day MP intake (UHPLC-QQQ-MS)
# Condition Context: in vivo
Below, each of the compounds is paired with its reported Concentration in fasting urine, Mean ± std Error, 15 Days (Fasting) value.
Dear colleague, please return just the value in nM, with no unit written.

Guide cases for Concentration in fasting urine, Mean ± std Error, 15 Days (Fasting), answers given:
Compound | Value Unit | Meas Value
COC(=O)CNC(=O)c1ccccc1 [Methyl hippurate] | nM | 6300
O=C(O)CCc1cccc(O)c1 [3-Hydroxyphenylpropanoic acid] | nM | 4400
COc1cc(/C=C/C(=O)O)ccc1O | nM | 400
Cc1ccc(C(=O)NCC(=O)O)cc1 | nM | 1200

Name the reported Concentration in fasting urine, Mean ± std Error, 15 Days (Fasting) value associated with the compound O=C(O)/C=C/c1cccc(O)c1 700

Param item = O=C(O)Cc1ccc(O)cc1 [4-Hydroxyphenylacetic acid] ; retrieve measured Concentration in fasting urine, Mean ± std Error, 15 Days (Fasting). 3000
